target: human ether-à-go-go-related gene (hERG) potassium channel (human); assay: primary screen, population patch clamp on CHO cells stably expressing hERG; higher = less effect of the substance;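 note: peak tail current of the secondary pulse compared with the same well before compound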
Sequence (Q12809 whole entry, looked up): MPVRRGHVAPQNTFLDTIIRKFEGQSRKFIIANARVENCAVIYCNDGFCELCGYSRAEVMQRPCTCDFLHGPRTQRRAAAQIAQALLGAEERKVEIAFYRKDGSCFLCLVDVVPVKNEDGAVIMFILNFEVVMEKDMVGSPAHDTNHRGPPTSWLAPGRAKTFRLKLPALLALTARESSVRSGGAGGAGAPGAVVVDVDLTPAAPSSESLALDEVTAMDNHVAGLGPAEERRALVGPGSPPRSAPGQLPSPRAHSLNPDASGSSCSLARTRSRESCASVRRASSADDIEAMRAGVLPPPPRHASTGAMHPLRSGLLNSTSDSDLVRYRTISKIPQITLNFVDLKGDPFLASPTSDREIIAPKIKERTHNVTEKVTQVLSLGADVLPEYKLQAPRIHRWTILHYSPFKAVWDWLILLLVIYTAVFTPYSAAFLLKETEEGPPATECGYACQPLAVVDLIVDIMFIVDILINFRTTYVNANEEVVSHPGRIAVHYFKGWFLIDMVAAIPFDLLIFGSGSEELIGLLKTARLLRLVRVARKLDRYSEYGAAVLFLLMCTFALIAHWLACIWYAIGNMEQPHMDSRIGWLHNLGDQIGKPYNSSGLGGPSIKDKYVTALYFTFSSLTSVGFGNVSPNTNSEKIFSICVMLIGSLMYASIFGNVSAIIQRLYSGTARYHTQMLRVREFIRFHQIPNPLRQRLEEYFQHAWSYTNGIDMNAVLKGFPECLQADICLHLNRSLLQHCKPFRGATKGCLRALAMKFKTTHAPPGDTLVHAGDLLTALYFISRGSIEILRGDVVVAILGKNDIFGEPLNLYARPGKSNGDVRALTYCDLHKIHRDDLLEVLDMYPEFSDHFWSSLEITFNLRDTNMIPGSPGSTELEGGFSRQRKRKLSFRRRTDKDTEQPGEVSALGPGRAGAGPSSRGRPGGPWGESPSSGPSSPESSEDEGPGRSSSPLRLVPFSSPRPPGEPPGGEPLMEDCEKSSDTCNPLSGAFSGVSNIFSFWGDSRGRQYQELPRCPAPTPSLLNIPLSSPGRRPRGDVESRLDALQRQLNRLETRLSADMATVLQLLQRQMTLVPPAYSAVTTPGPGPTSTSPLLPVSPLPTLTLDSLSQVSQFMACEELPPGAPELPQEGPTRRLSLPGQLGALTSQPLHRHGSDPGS
Out of some 310,000 compounds screened, about 14,000 (4.5%) showed an effect of 50% or more. Effects have a minus sign here. Only a selection was taken, and strong results are over-represented in it overall.
Reported values of hERG current change (%, negative = inhibition) at 10uM for individual entries
Reply with just the number (in %).

[[record]]
substance_smiles = "O=C(NCCNS(=O)(=O)c1ccccc1)c1ccc([N+](=O)[O-])cc1"
unit_text = "%"
measured_number = -12

[[record]]
substance_smiles = "COc1cccc(CN2CCC(C(=O)N3CCN(c4ccccc4F)CC3)CC2)c1"
unit_text = "%"
measured_number = -53

[[record]]
substance_smiles = "C=CCn1nc([N+](=O)[O-])nc1Sc1cccc2cccnc12"
unit_text = "%"
measured_number = -2.55

[[record]]
substance_smiles = "CCOc1ccc(CN2CCC(C(=O)N3CCN(c4ccccc4F)CC3)CC2)cc1OC.O=C(O)C(=O)O"
unit_text = "%"
measured_number = -64.8


Shift focus to the following entry.
System human ether-à-go-go-related gene (hERG) potassium channel (human). Read-out hERG current change (%, negative = inhibition) at 10uM. Item CN(c1cccc(NC(=O)c2cccc([N+](=O)[O-])c2)c1)S(C)(=O)=O . Report value.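 Note: peak tail current of the secondary pulse compared with the same well before compound.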
13.1

// provenance: paper PMC4336329
